- EXPERIMENT SUMMARY: Acute toxicity, i.v., rat
- EXPERIMENTAL PARAMETERS: in vivo, iv, Ratte, read-out: LD₅₀ i.v.
MEASURED ENDPOINT: LD50 (mg/kg)
Please reply with the bare figure in mg/kg and do not write the unit itself.

INPUT: Using known records, supply LD50 for COc1ccc(-c2nc3ccc(C4=NNC(=O)CC4C)cc3[nH]2)cc1 (centres unmarked)
OUTPUT: 72

----------
- EXPERIMENT SUMMARY: Acute toxicity, p.o., mouse
- EXPERIMENTAL PARAMETERS: in vivo, po, Maus, read-out: LD₅₀ p.o.
MEASURED ENDPOINT: LD50

INPUT: Using known records, supply LD50 for COc1ccc(-c2nc3ccc(C4=NNC(=O)CC4C)cc3[nH]2)cc1 (stereo not shown)
OUTPUT: 600 mg/kg
